Readings of Stability in liver microsomes RLM for the listed compounds
- protocol_notes: Stability in rat liver microsomes
- Format: in vitro ADME
- applied_conditions: half-life
quantity_name: Stability in liver microsomes RLM (min)

compound	quantity_name	readout_value
CCCCOC(=O)[N-]S(=O)(=O)c1ccc(CC(C)C)cc1-c1ccc(Cn2ccnc2C(C)(C)O)cc1.[K+] [Example 7B]	Stability in liver microsomes RLM	22
COC(=O)[N-]S(=O)(=O)c1ccc(CC(C)C)cc1-c1ccc(Cn2ccnc2C(C)(C)O)cc1.[K+] [Example 8B]	Stability in liver microsomes RLM	41
CCCCOC(=O)NS(=O)(=O)c1sc(CC(C)C)nc1-c1ccc(Cn2ccnc2C(C)(C)C)cc1 [Example 4]	Stability in liver microsomes RLM	12
CCCCOC(=O)[N-]S(=O)(=O)c1ccc(CC(C)C)cc1-c1ccc(Cn2ccnc2C(C)(C)C)cc1.[K+] [Example 2B]	Stability in liver microsomes RLM	8
CCCCOC(=O)[N-]S(=O)(=O)c1sc(CC(C)C)cc1-c1ccc(Cn2ccnc2)cc1.[Na+] [Example 13, reference compound]	Stability in liver microsomes RLM	20
CCCCOC(=O)[N-]S(=O)(=O)c1sc(CC(C)C)cc1-c1ccc(Cn2ccnc2C(C)(C)C)cc1.[K+] [Example 11B]	Stability in liver microsomes RLM	18

* * *

- tested_system: UniProt P30556
- Sequence (P30556 whole entry): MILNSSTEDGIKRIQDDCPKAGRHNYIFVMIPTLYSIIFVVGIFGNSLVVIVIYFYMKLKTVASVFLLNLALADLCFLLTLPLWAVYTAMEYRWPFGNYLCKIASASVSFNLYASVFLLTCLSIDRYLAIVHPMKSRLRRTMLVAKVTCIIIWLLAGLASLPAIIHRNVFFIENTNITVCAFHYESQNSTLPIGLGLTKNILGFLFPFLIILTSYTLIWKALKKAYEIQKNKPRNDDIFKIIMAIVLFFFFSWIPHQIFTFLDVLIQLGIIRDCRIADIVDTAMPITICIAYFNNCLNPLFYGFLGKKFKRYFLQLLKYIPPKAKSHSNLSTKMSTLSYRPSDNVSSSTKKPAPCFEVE
Ki for assorted compounds
quantity_name: Ki (nM)

compound	quantity_name	uom	readout_value
CCCCOC(=O)NS(=O)(=O)c1sc(CC(C)C)nc1-c1ccc(Cn2ccnc2-c2nccs2)cc1 [Example 16]	Ki	nM	1000
CCCc1ccc(S(=O)(=O)[N-]C(=O)OC)c(-c2ccc(Cn3ccnc3C(C)(C)O)cc2)c1.[K+] [Example 30B]	Ki	nM	1000

* * *

- tested_system: CYP2C9 (Homo sapiens, UniProt P11712)
- Sequence (P11712 whole entry): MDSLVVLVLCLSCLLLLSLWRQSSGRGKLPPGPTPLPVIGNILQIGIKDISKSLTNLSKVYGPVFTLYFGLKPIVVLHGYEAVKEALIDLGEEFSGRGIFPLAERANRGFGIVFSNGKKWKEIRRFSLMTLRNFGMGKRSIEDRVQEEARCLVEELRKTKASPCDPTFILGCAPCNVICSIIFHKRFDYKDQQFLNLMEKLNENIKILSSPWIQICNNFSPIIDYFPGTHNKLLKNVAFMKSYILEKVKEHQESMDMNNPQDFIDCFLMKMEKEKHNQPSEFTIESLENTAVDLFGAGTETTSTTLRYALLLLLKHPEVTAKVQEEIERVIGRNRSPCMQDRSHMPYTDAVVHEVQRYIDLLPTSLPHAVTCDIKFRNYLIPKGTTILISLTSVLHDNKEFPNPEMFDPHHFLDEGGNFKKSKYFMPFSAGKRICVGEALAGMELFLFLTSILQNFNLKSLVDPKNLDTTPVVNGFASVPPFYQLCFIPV
- protocol_notes: CYP450 inhibition assay, pooled human liver microsomes, diclofenac substrate
- applied_conditions: both, human, pooled human liver microsomes, pH 7.4, probe diclofenac
Please enter label 1 where inhibition at 10 min, 10 µM is greater than or equal to 70%, and label 0 where it is lower.

molecule	class_assignment
COC(=O)[N-]S(=O)(=O)c1sc(CC(C)C)cc1-c1ccc(Cn2ccnc2C(C)(C)C)cc1.[K+] [Example 12B]	label 0
COC(=O)[N-]S(=O)(=O)c1ccc(CC(C)C)cc1-c1ccc(Cn2ccnc2C(C)(C)O)cc1.[K+]	label 1
COC(=O)NS(=O)(=O)c1ccc(CC(C)C)cc1-c1ccc(Cn2ccnc2C(C)(C)F)cc1	label 0
CCCCOC(=O)[N-]S(=O)(=O)c1ccc(CC(C)C)cc1-c1ccc(Cn2ccnc2C(C)(C)O)cc1.[K+]	label 1
CCCCOC(=O)[N-]S(=O)(=O)c1sc(CC(C)C)cc1-c1ccc(Cn2ccnc2C(C)(C)C)cc1.[K+] [Example 11B]	label 1
COC(=O)NS(=O)(=O)c1ccc(CC(C)C)cc1-c1ccc(Cn2ccnc2C(C)(C)C)cc1	label 0
CCCCOC(=O)[N-]S(=O)(=O)c1ccc(CC(C)C)cc1-c1ccc(Cn2ccnc2C(C)(C)C)cc1.[K+]	label 1
CCCCOC(=O)NS(=O)(=O)c1ccc(CC(C)C)cc1-c1ccc(Cn2ccnc2C(C)(C)F)cc1	label 0

* * *

- protocol_notes: Kinetic solubility in PBS pH 7.4
- Assay type: physicochemical
- applied_conditions: Dulbecco's PBS buffer, aqueous buffer, kinetic from dmso stock; PBS pH 7.4, 24 h room temperature, 2% DMSO

compound	uom	solubility kinetic at 24 h
CCCCOC(=O)NS(=O)(=O)c1sc(CC(C)C)nc1-c1ccc(Cn2ccnc2C(C)(C)C)cc1	µM	180
COC(=O)NS(=O)(=O)c1sc(CC(C)C)nc1-c1ccc(Cn2ccnc2C(C)(C)C)cc1	µM	195
COC(=O)NS(=O)(=O)c1ccc(CC(C)C)cc1-c1ccc(Cn2ccnc2C(C)(C)C)cc1	µM	140
CCCCOC(=O)[N-]S(=O)(=O)c1ccc(CC(C)C)cc1-c1ccc(Cn2ccnc2C(C)(C)C)cc1.[K+]	µM	183
CCCCOC(=O)[N-]S(=O)(=O)c1sc(CC(C)C)cc1-c1ccc(Cn2ccnc2)cc1.[Na+] [Example 13, reference compound]	µM	198

* * *

- Tested on: CYP3A
- protocol_notes: CYP450 inhibition assay, pooled human liver microsomes, testosterone substrate
- applied_conditions: both, human, pooled human liver microsomes, pH 7.4, probe testosterone, CYP 450 Inhibition CYP3A testosterone, at 10 μM
quantity_name: inhibition at 10 min, 10 µM (%)

compound	readout_value
CCCCOC(=O)[N-]S(=O)(=O)c1sc(CC(C)C)cc1-c1ccc(Cn2ccnc2)cc1.[Na+] [Example 13, reference compound]	84
COC(=O)[N-]S(=O)(=O)c1sc(CC(C)C)cc1-c1ccc(Cn2ccnc2C(C)(C)C)cc1.[K+] [Example 12B]	6.8
CCCCOC(=O)[N-]S(=O)(=O)c1ccc(CC(C)C)cc1-c1ccc(Cn2ccnc2C(C)(C)O)cc1.[K+]	3.1
CCCCOC(=O)[N-]S(=O)(=O)c1ccc(CC(C)C)cc1-c1ccc(Cn2ccnc2C(C)(C)C)cc1.[K+]	27

* * *

- tested_system: CYP2D6 (Homo sapiens, UniProt P10635)
- Sequence (P10635 whole entry): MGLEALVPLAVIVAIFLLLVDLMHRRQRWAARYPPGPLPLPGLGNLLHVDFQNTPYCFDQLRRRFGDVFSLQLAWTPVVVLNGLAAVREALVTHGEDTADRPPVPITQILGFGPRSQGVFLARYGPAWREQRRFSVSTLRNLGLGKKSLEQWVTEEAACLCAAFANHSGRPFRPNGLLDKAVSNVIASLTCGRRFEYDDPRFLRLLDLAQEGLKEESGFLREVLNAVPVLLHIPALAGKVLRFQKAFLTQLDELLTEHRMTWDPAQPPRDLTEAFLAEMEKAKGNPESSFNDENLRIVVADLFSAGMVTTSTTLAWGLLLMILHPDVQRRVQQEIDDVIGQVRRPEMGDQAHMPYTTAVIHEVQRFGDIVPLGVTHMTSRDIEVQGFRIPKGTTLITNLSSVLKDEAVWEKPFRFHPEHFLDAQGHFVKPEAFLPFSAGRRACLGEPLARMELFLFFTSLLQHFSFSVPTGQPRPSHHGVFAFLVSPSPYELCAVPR
- protocol_notes: CYP450 inhibition assay, pooled human liver microsomes, dextromethorphan substrate
- applied_conditions: both, human, pooled human liver microsomes, pH 7.4, probe dextromethorphan

compound	tested_system	inhibition at 10 min, 10 µM [%]
CCCCOC(=O)[N-]S(=O)(=O)c1ccc(CC(C)C)cc1-c1ccc(Cn2ccnc2C(C)(C)O)cc1.[K+]	CYP2D6 (Homo sapiens, UniProt P10635)	16
CCCCOC(=O)[N-]S(=O)(=O)c1sc(CC(C)C)cc1-c1ccc(Cn2ccnc2C(C)(C)C)cc1.[K+] [Example 11B]	CYP2D6 (Homo sapiens, UniProt P10635)	14
COC(=O)[N-]S(=O)(=O)c1sc(CC(C)C)cc1-c1ccc(Cn2ccnc2C(C)(C)C)cc1.[K+] [Example 12B]	CYP2D6 (Homo sapiens, UniProt P10635)	1.6
COC(=O)[N-]S(=O)(=O)c1ccc(CC(C)C)cc1-c1ccc(Cn2ccnc2C(C)(C)O)cc1.[K+]	CYP2D6 (Homo sapiens, UniProt P10635)	2.5
COC(=O)NS(=O)(=O)c1ccc(CC(C)C)cc1-c1ccc(Cn2ccnc2C(C)(C)C)cc1	CYP2D6 (Homo sapiens, UniProt P10635)	9
COC(=O)NS(=O)(=O)c1ccc(CC(C)C)cc1-c1ccc(Cn2ccnc2C(C)(C)F)cc1	CYP2D6 (Homo sapiens, UniProt P10635)	16.2
CCCCOC(=O)[N-]S(=O)(=O)c1ccc(CC(C)C)cc1-c1ccc(Cn2ccnc2C(C)(C)C)cc1.[K+]	CYP2D6 (Homo sapiens, UniProt P10635)	15
CCCCOC(=O)NS(=O)(=O)c1ccc(CC(C)C)cc1-c1ccc(Cn2ccnc2C(C)(C)F)cc1	CYP2D6 (Homo sapiens, UniProt P10635)	17.1

* * *

- tested_system: CYP1A (Homo sapiens)
- Sequence (P05177 whole entry): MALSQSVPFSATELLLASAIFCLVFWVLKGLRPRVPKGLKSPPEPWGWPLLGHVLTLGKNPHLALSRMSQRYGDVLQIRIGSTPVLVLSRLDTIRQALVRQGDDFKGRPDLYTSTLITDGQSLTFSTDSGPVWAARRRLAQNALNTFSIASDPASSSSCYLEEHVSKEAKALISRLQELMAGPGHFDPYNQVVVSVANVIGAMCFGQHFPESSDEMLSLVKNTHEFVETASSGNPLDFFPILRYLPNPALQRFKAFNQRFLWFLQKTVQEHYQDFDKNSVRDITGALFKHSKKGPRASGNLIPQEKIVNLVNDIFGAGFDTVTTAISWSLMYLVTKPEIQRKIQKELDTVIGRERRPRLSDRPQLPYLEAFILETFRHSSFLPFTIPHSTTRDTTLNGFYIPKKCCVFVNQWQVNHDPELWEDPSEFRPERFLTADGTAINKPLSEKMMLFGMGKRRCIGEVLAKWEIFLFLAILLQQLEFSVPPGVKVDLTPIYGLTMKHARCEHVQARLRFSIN
- protocol_notes: CYP450 inhibition assay, pooled human liver microsomes, phenacetin substrate
- applied_conditions: both, human, pooled human liver microsomes, pH 7.4, probe phenacetin

compound	uom	inhibition at 10 min, 10 µM
COC(=O)[N-]S(=O)(=O)c1sc(CC(C)C)cc1-c1ccc(Cn2ccnc2C(C)(C)C)cc1.[K+] [Example 12B]	%	8.3
CCCCOC(=O)[N-]S(=O)(=O)c1ccc(CC(C)C)cc1-c1ccc(Cn2ccnc2C(C)(C)C)cc1.[K+]	%	4.5
CCCCOC(=O)NS(=O)(=O)c1ccc(CC(C)C)cc1-c1ccc(Cn2ccnc2C(C)(C)F)cc1	%	-3.04
CCCCOC(=O)[N-]S(=O)(=O)c1sc(CC(C)C)cc1-c1ccc(Cn2ccnc2C(C)(C)C)cc1.[K+] [Example 11B]	%	8.4
COC(=O)NS(=O)(=O)c1ccc(CC(C)C)cc1-c1ccc(Cn2ccnc2C(C)(C)F)cc1	%	-5.97

* * *

- tested_system: CYP2C8 (Homo sapiens, UniProt P10632)
- Sequence (P10632 whole entry): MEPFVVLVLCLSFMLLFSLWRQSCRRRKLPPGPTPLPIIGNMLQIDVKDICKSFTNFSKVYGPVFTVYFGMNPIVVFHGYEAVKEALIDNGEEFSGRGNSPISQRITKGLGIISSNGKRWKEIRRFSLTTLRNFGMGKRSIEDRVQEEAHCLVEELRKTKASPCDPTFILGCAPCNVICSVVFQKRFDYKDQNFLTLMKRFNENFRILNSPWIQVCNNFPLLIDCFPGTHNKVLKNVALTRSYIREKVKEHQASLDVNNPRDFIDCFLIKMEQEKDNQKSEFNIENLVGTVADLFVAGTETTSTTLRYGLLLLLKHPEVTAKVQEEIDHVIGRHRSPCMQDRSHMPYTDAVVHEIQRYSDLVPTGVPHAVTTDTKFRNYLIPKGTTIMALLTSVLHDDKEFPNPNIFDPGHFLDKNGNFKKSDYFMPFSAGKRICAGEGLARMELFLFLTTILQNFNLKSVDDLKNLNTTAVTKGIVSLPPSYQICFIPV
- protocol_notes: CYP450 inhibition assay, pooled human liver microsomes, amodiaquine substrate
- applied_conditions: both, human, pooled human liver microsomes, pH 7.4, probe amodiaquine
Would you mind labelling by inhibition at 10 min, 10 µM? At or over 70% is TRUE, under is FALSE.

compound	tested_system	class_assignment
CCCCOC(=O)[N-]S(=O)(=O)c1ccc(CC(C)C)cc1-c1ccc(Cn2ccnc2C(C)(C)C)cc1.[K+] [Example 2B]	CYP2C8 (Homo sapiens, UniProt P10632)	TRUE
COC(=O)NS(=O)(=O)c1ccc(CC(C)C)cc1-c1ccc(Cn2ccnc2C(C)(C)C)cc1 [Example 1A]	CYP2C8 (Homo sapiens, UniProt P10632)	FALSE
CCCCOC(=O)[N-]S(=O)(=O)c1sc(CC(C)C)cc1-c1ccc(Cn2ccnc2C(C)(C)C)cc1.[K+] [Example 11B]	CYP2C8 (Homo sapiens, UniProt P10632)	TRUE
COC(=O)[N-]S(=O)(=O)c1ccc(CC(C)C)cc1-c1ccc(Cn2ccnc2C(C)(C)O)cc1.[K+] [Example 8B]	CYP2C8 (Homo sapiens, UniProt P10632)	FALSE
COC(=O)[N-]S(=O)(=O)c1sc(CC(C)C)cc1-c1ccc(Cn2ccnc2C(C)(C)C)cc1.[K+] [Example 12B]	CYP2C8 (Homo sapiens, UniProt P10632)	TRUE
CCCCOC(=O)NS(=O)(=O)c1ccc(CC(C)C)cc1-c1ccc(Cn2ccnc2C(C)(C)F)cc1 [Example 32]	CYP2C8 (Homo sapiens, UniProt P10632)	FALSE
